target: WDR5 (Homo sapiens (Human)); assay: Surface Plasmon Resonance (SPR) assay, KD and residence time; type: binding; conditions: surface plasmon resonance (SPR); read-out: WDR5 binding affinity (KD)
pKd: −log10 of the molar value.
measured_endpoint: pKd

Use the examples below as a reference point.
CNC(=O)c1ccc(-c2cc(NC(=O)c3c[nH]c(=O)cc3C(F)(F)F)c(N3C[C@@H](C)N(C)[C@@H](C)C3)cc2F)cc1F :: 8.96
C[C@@H]1CN(c2cc(F)c(-c3cc(F)c(=O)n(C)c3)cc2NC(=O)c2c[nH]c(=O)cc2C(F)(F)F)C[C@H](C)N1C :: 8.82
CC1CN(c2cc(F)c(C3=CCN(C(=O)OC4CC(F)(F)C4)CC3)cc2NC(=O)c2ccc(F)cc2C(F)(F)F)CCN1C (stereo in doubt) :: 8.67
C[C@@H]1CN(c2cc(F)c(-c3ccnc(N4CCOCC4)n3)cc2NC(=O)c2cn(C)c(=O)cc2C(F)(F)F)C[C@H](C)N1C :: 8.32
CNC(=O)c1cc(-c2cc(NC(=O)c3c[nH]c(=O)cc3C(F)(F)F)c(N3C[C@@H](C)N(C)[C@@H](C)C3)cc2F)ccc1F :: 8.77
C[C@@H]1CN(c2cc(F)c(-c3cnc(N4CCC(C)(O)CC4)nc3)cc2NC(=O)c2c[nH]c(=O)cc2C(F)(F)F)C[C@H](C)N1C :: 8.97

1: CC1CN(c2cc(F)c(C3=CCCN(c4ncccn4)C3)cc2NC(=O)c2ccc(F)cc2C(F)(F)F)CCN1C (stereo in doubt)
2: CC1CN(c2cc(F)c(-c3cnc(N4CCOCC4)s3)cc2NC(=O)c2c[nH]c(=O)cc2C(F)(F)F)CCN1C (stereo in doubt)
3: CC(C)OC(=O)N1CCC=C(c2cc(NC(=O)c3ccc(F)cc3C(F)(F)F)c(N3CCN(C)C(C)C3)cc2F)C1 (stereo in doubt)
4: C[C@@H]1CN(c2cc(F)c(-c3ccc4ncsc4c3)cc2NC(=O)c2cn(C)c(=O)cc2C(F)F)C[C@H](C)N1C
Form: Sort by [pKd] Order [ ascending ] List each label, following the requested order.
4, 3, 1, 2

1: C[C@@H]1CN(c2cc(F)c(C3=CCN(c4ncc(CN(C)C)cn4)C3)cc2NC(=O)c2c[nH]c(=O)cc2C(F)(F)F)C[C@H](C)N1C
2: C[C@@H]1CN(c2nccc(-c3cc(NC(=O)c4ccc(F)cc4C(F)(F)F)c(N4CCN(C)[C@H](C)C4)cc3F)n2)CCO1 (stereo in doubt)
Which record would sort first by descending pKd, 1 or 2 ? Answer by quoting the chosen item's label.
2
(2: 9.54, 1: 8.59)

====

Molecular target: WDR5 (Homo sapiens (Human))
Experiment: Surface Plasmon Resonance (SPR) assay, KD and residence time
Assay type: binding
Details: surface plasmon resonance (SPR) assay; read-out: WDR5 binding affinity (KD)
Experimental: (i) Surface Plasmon Resonance (SPR) Assay The lifetime of a drug on its target is determined by two rate constants: the association rate constant (kon) and the dissociation rate constant (koff). […] Drug-target residence time is defined as the reciprocal of koff (τ=1/koff), making the residence time a parameter that is easily measured by routine in vitro assay methods.
measured_endpoint: Kd (nM)

Cc1cnc(N2CCC=C(c3cc(NC(=O)c4c[nH]c(=O)cc4C(F)(F)F)c(N4C[C@@H](C)N(C)[C@@H](C)C4)cc3F)C2)nc1 :: 0.673
C[C@@H]1CN(c2ccc(-c3cc(NC(=O)c4c[nH]c(=O)cc4C(F)(F)F)c(N4C[C@@H](C)N(C)[C@@H](C)C4)cc3F)cn2)C[C@H](C)O1 :: 0.532
C[C@@H]1CN(c2cc(F)c(-c3cnc(N4CCOCC4)c(Cl)c3)cc2NC(=O)c2c[nH]c(=O)cc2C(F)(F)F)C[C@H](C)N1C :: 1.34
C[C@@H]1CN(c2cc(F)c(-c3ccnc(N4CCOCC4)n3)cc2NC(=O)c2c[nH]c(=O)cc2C(F)(F)F)C[C@H](C)N1C :: 0.877

a: C[C@@H]1CN(c2cc(F)c(-c3cnc(N(C)C4CCOCC4)nc3)cc2NC(=O)c2c[nH]c(=O)cc2C(F)(F)F)C[C@H](C)N1C
b: C[C@@H]1CN(c2cc(F)c(-c3cnc(N4CCOCC4)nc3)cc2NC(=O)c2cc(F)cc(C(F)(F)F)c2)C[C@H](C)N1C
Which shows the larger Kd value: a or b ? // respond with label for picked entry
b
